In this section we review reported growth values for a set of molecules.
System: NCI-H322M lung
Test: NCI-60 one-dose screen, 48 h (100 = growth as untreated, 0 = no growth, -100 = all killed)
Settings: 10 µM
Compounds without any hit were thinned out: in the full panel of roughly 83,000, 20% have a hit.
API: value field is a number in %; no unit string.

See these solved cases before continuing.
>>> meas_value("CCN1C(=O)/C(=C/C=C/N(C)c2ccccc2)SC1=S")
94.6
>>> meas_value("Cc1cc2nc(CC(=O)c3ccccc3)c(=O)[nH]c2cc1C")
98.7
>>> meas_value("OC(c1ccccn1)C(O)c1ccccn1 (stereo not given)")
96.8
>>> meas_value("COc1cc(C(=O)N/N=C/c2cccc([N+](=O)[O-])c2)cc(OC)c1OC")
87.2
>>> meas_value("NC(C(=O)O)C(O)c1ccco1 (stereo not given)")
107
>>> meas_value("N#Cc1ccc(NC(=O)Nc2cccc(C#N)c2)cc1")
116

[Q] Quick check: growth of CC1CC(O)CC(C)(C)C1 (stereo not given) ?
[A] 98.2

[Q] And what about the molecule "COc1cc(CCN=Cc2ccccc2O)c([N+](=O)[O-])cc1OC" ?
[A] 101

[Q] And what about the molecule "CC(=O)Nc1ccc(NC(C)=O)c2c1C(=O)c1ccccc1C2=O" ?
[A] 89.1

[Q] And what about the molecule "COc1ccc(-c2cc3c(nn2)-c2ccccc2C3=O)cc1" ?
[A] 65.6

[Q] And what about the molecule "O=[N+]([O-])c1ccc(Cl)c(S(=O)(=O)O)c1" ?
[A] 136

[Q] And what about the molecule "c1ccc2c(N3CCCCC3)ncnc2c1" ?
[A] 117

[Q] And what about the molecule "O=C(CC(=O)c1ccccc1O)c1ccccc1" ?
[A] 103

[Q] And what about the molecule "CCCC(=O)c1cc(C)ccc1OC" ?
[A] 126

[Q] And what about the molecule CC1(C(=O)O)NC(C(=O)O)Cc2c1[nH]c1ccccc21 (stereo not given) ?
[A] 91.5

====

Tested on: U251 CNS
Experiment: NCI-60 one-dose screen, 48 h (100 = growth as untreated, 0 = no growth, -100 = all killed)
Settings: 10 µM
This is part of a sample that, as a whole, favours compounds with a hit. Of some 83,000 tested, about 20% had one in any assay. The source made the active and inactive calls. Rule for the calls: active = growth percent below 10; inactive = the rest.
In this section we review reported growth values for a set of compounds.

See these solved cases before continuing.
>>> meas_value("CCOC(=O)CCCS(C)(=O)=O")
"105% (inactive)"
>>> meas_value("CN(C)c1nc2c([nH]1)c(=O)n(C)c(=O)n2C")
"93.4% (inactive)"
>>> meas_value("O=C1C=CC(=O)N1c1ccc(I)cc1Cl")
"99.5% (inactive)"
>>> meas_value("CCC(C)(O)c1ccc(C)cc1 (stereo not given)")
"105% (inactive)"

[Q] Quick check: growth of "CC(=O)c1cc2c(cc1F)C(C)(C)CCC2(C)C" ?
[A] 104% (inactive)

[Q] And what about the compound CCCC1(c2ccccc2)NC(=O)NC1=O (stereo not given) ?
[A] 113% (inactive)

====

Tested on: HCC-2998 colon
Experiment: NCI-60 one-dose screen, 48 h (100 = growth as untreated, 0 = no growth, -100 = all killed)
Details: 10 µM
This is part of a sample that, as a whole, favours compounds with a hit. Of some 83,000 tested, about 20% had one in any assay.
METRIC: growth (%)
API: value field is a number in %; no unit string.

See these solved cases before continuing.
>>> meas_value("COc1cc(OC)c2ccc(=O)oc2c1")
94.8
>>> meas_value("NC(C(=O)O)c1ccc([N+](=O)[O-])cc1 (stereo unspecified)")
111
>>> meas_value("COc1ccc2c(c1)CCc1c-2n[nH]c1-c1[nH]nc2c1CCc1cc(OC)ccc1-2")
80.9
>>> meas_value("Cc1cc(N2CCC(N3CCCC3)CC2)nc(/N=C(\\N)Nc2ccc(Cl)c(Cl)c2)n1")
-82.2
>>> meas_value("CC(C)(C)n1nc(C2CC2)c(Br)c1NC(=O)c1ccccc1F")
106
>>> meas_value("CC(=O)Nc1ccc(NC(C)=O)c2c1C(=O)c1ccccc1C2=O")
105

[Q] Quick check: growth of "c1ccc(/C(=N\N=C(/c2ccccc2)c2cccs2)c2cccs2)cc1" ?
[A] 101

[Q] And what about the compound "O=C1Cc2ccccc2C(=O)O1" ?
[A] 112

[Q] And what about the compound "CCOC(=O)C(=O)C=P(c1ccccc1)(c1ccccc1)c1ccccc1" ?
[A] 107

[Q] And what about the compound "CC(=O)C1CCCCC1" ?
[A] 103

[Q] And what about the compound "c1c(-c2cc(C3CC3)[nH]n2)n[nH]c1C1CC1" ?
[A] 102
